Values were extracted from patent US20230183352A1.

The following binders are shown together with reported FACS reading values.
target: T1, Claudin 18.2 (CLDN18.2), expressed on CHOS-CLDN 18.2 / HEK293-CLDN 18.2 / HCC827-CLDN 18.2 cells (human, UniProt P56856-2 1-261); test: FACS, CHOS-CLDN18.2 cells, 0.020 µg/ml
T1 construct: whole, on cells; The species is not repeated for the CHOS-CLDN 18.2 cells; also called claudin-18A2
I'd appreciate a reply containing only the number, no unit.

binder: QP024025 (antibody, human IgG1, V domains shown, also called IMAB362; 175D10(IMAB362)) VH: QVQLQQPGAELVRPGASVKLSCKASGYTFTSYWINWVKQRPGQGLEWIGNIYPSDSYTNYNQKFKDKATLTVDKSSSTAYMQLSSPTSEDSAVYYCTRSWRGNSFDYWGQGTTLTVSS VL: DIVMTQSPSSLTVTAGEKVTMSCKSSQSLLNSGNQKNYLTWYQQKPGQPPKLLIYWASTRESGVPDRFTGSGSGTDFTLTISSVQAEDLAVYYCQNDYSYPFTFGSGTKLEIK
FACS reading: 6950
//
binder: QP14451440 (antibody, human IgG1, kappa, V domains shown, Humanized from QP192193; also called QP14401445) VH: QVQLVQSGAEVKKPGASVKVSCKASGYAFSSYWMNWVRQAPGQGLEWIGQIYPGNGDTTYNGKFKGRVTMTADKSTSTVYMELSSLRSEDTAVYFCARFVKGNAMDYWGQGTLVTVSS VL: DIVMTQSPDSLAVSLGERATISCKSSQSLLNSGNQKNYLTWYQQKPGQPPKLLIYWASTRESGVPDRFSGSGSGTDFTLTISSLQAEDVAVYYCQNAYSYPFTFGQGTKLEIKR
FACS reading: 13800
//
binder: QP14451442 (antibody, human IgG1, kappa, V domains shown, Humanized from QP192193) VH: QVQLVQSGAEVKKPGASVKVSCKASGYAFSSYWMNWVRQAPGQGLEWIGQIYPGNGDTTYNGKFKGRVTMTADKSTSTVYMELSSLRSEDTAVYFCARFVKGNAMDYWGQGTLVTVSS VL: DIVMTQSPDSLAVSLGERATISCKSSQSLLNSGNQKNYLTWYQQKPGQPPKMLIYWASTRESGVPDRFSGSGSGIDFTLTISSVQAEDVAVYYCQNAYSYPFTFGQGTKLEIKR
FACS reading: 11100

Let us examine a further case.
Incoming: What does the record list as FACS reading for QP14441441 (antibody, human IgG1, kappa, V domains shown, Humanized from QP192193) VH: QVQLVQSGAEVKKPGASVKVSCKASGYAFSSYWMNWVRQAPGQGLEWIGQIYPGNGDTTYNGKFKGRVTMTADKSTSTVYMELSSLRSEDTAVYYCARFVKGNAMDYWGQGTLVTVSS VL: DIVMTQSPDSLAVSLGERATISCKSSQSLLNSGNQKNYLTWYQQKPGQPPKLLIYWASTRESGVPDRFSGSGSGIDFTLTISSVQAEDVAVYYCQNAYSYPFTFGQGTKLEIKR ?
Outgoing: 10100
